Target: human 5-HT2C (Homo sapiens, UniProt P28335)
Construct: expressed in transfected cells; membranes prepared
Sequence (P28335 33-458): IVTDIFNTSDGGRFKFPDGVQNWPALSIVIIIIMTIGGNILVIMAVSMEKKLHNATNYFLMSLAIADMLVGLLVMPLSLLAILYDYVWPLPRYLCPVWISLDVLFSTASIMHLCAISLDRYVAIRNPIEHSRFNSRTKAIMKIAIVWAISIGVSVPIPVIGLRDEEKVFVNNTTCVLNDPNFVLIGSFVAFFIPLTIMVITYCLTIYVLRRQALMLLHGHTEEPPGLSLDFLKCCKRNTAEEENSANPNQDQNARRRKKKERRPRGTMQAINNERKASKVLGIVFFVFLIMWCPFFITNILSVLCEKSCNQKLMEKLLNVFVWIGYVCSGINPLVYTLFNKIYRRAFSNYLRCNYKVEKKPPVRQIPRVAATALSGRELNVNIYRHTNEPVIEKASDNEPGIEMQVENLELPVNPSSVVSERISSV
Test: Receptor binding assay, inhibition of [3H]-ligand binding to human 5-HT2C
Conditions: [3H]mesulergine 2 nM, CHO cell membranes, 37°C, 40 min
Quantity Name: Ki

[Q] For the molecule COc1c(OS(=O)(=O)O)cccc1C(O)C1CCN(CCc2ccc(F)cc2)CC1 (single isomer, unassigned) [Example 1H] , report Ki.
[A] > 1 µM

----------
Some compounds, each annotated with its measured Papp at 16 µM.
Experiment: Bovine Brain Endothelial Cells (BBMEC) transport study, in vitro BBB permeability
Format: in vitro ADME
Settings: BBMEC monolayer, 16 µM, mean ± standard deviation
Procedure: The compounds of this invention are capable of crossing the blood-brain barrier (BBB) as shown by their ability to penetrate across a membrane of a monolayer of bovine brain microvessel endothelial cells, an in vitro model for BBB permeability. The procedure was performed according to: Kenneth L. Audus et al., Brain Microvessel Endothelial Cell Culture System (Chapter 13) pp 239-258. […]
Only the number, expressed in ×10⁻⁶ cm/s, is required.

                                   compound  measured_number
0  COc1c(OS(=O)(=O)O)cccc1C(O)C1CCN(CCc2ccc(F)cc2)CC1 (single isomer, unassigned) [Example 1H]             52.5

Next up:
[Q] For the compound OC[C@@H](O)[C@@H](O)[C@H](O)[C@H](O)CO [Mannitol, reference compound] , report Papp at 16 µM.
[A] 27.6

----------
Some compounds, each annotated with its measured Papp at 5.4 µM.
assay: Bovine Brain Endothelial Cells (BBMEC) transport study, in vitro BBB permeability; assay type: in vitro ADME; conditions: BBMEC monolayer, 5.4 µM, mean ± standard deviation
Only the number, expressed in ×10⁻⁶ cm/s, is required.

In [3]: df
Out[3]:
                                   compound  measured_number
0  COc1c(OS(=O)(=O)O)cccc1C(O)C1CCN(CCc2ccc(F)cc2)CC1 (single isomer, unassigned)             41.4

[Q] For the compound OC[C@@H](O)[C@@H](O)[C@H](O)[C@H](O)CO [Mannitol, reference compound] , report Papp at 5.4 µM.
[A] 27.6

----------
biological target: human α1A (Homo sapiens); construct: expressed in transfected cells; membranes prepared; assay: Receptor binding assay, inhibition of [3H]-ligand binding to human α1A; details: [3H]prazosin 1 nM, CHO cell membranes, 37°C, 40 min
Sequence (P35348 whole entry): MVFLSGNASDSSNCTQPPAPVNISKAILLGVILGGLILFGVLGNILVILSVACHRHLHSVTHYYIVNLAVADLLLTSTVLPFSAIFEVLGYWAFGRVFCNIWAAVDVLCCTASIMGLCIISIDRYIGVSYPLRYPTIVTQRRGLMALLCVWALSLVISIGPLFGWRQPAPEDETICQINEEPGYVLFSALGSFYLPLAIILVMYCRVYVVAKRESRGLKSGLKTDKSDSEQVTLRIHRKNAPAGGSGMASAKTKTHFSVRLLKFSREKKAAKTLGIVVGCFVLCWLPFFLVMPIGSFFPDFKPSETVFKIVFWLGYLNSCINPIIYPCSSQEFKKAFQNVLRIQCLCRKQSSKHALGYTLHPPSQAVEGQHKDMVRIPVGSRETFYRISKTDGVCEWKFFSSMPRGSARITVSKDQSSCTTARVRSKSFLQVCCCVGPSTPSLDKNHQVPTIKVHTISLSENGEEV
Quantity Name: Ki

[Q] For the molecule COc1c(OS(=O)(=O)O)cccc1C(O)C1CCN(CCc2ccc(F)cc2)CC1 (single isomer, unassigned) [Example 1H] , report Ki.
[A] > 1 µM

Source listed as patent EP1202967B1.
